- targetEntity: T1, human TGFβ3 (human, UniProt P10600 301-412)
- T1 sequence: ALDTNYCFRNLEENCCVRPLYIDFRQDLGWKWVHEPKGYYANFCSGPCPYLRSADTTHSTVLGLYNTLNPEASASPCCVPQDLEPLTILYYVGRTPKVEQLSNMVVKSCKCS
- protocolSummary: Biacore off-rate vs wt GC1008, 50 nM
# kd var/kd wt annotations
Reply with just the number.

Here's what some known entries look like.
binder | observedResult
S30P (antibody, V domains shown, GC1008 IgG4 variant) VH: QVQLVQSGAEVKKPGSSVKVSCKASGYTFPSNVISWVRQAPGQGLEWMGGVIPIVDIANYAQRFKGRVTITADESTSTTYMELSSLRSEDTAVYYCASTLGLVLDAMDYWGQGTLVTVSS VL: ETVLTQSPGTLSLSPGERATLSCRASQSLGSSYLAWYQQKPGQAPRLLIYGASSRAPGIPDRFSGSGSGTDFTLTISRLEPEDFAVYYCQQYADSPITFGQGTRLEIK | 0.9
Y27D (antibody, V domains shown, GC1008 IgG4 variant) VH: QVQLVQSGAEVKKPGSSVKVSCKASGDTFSSNVISWVRQAPGQGLEWMGGVIPIVDIANYAQRFKGRVTITADESTSTTYMELSSLRSEDTAVYYCASTLGLVLDAMDYWGQGTLVTVSS VL: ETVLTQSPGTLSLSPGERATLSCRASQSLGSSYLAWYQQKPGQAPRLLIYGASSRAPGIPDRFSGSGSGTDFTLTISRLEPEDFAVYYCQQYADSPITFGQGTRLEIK | 1.2
I54V (antibody, V domains shown, GC1008 IgG4 variant) VH: QVQLVQSGAEVKKPGSSVKVSCKASGYTFSSNVISWVRQAPGQGLEWMGGVIPVVDIANYAQRFKGRVTITADESTSTTYMELSSLRSEDTAVYYCASTLGLVLDAMDYWGQGTLVTVSS VL: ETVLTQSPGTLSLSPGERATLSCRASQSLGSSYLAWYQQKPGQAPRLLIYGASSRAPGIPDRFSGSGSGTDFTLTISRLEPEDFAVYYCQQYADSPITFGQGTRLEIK | 0.8
N32E (antibody, V domains shown, GC1008 IgG4 variant) VH: QVQLVQSGAEVKKPGSSVKVSCKASGYTFSSEVISWVRQAPGQGLEWMGGVIPIVDIANYAQRFKGRVTITADESTSTTYMELSSLRSEDTAVYYCASTLGLVLDAMDYWGQGTLVTVSS VL: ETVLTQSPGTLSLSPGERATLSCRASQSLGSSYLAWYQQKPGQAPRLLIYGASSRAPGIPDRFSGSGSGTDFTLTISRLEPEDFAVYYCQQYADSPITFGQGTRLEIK | 0.7

Would you kindly look at the next entry?
[ask] Give the measured kd var/kd wt for D56K (antibody, V domains shown, GC1008 IgG4 variant) VH: QVQLVQSGAEVKKPGSSVKVSCKASGYTFSSNVISWVRQAPGQGLEWMGGVIPIVKIANYAQRFKGRVTITADESTSTTYMELSSLRSEDTAVYYCASTLGLVLDAMDYWGQGTLVTVSS VL: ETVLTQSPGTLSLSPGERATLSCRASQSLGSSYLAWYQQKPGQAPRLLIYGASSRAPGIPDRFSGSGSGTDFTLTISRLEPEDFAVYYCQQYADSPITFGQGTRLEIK
[reply] 0.7
